In this section we review reported M Fading values for a set of compounds.
- Assay info: Example 1: evaluation of image storage stability (magenta fading), stabilizing solution
- Experimental context: 5 mmol/l; stabilization time 20 sec.; 2 weeks 60° C. 20% RH

Below are worked cases with known answers.
>>> endpoint_value("c1cnn(CN2CCOCC2)c1 [Compound A-16]")
0.00
>>> endpoint_value("Cc1ccn(CN(CCO)CCO)n1 [Compound A-11]")
0.05
>>> endpoint_value("C1N2CN3CN1CN(C2)C3 [Hexamethylenetetramine, reference compound]")
0.31
>>> endpoint_value("OCN1CCN(Cn2cncn2)CC1 [Compound A-45]")
0.01
>>> endpoint_value("c1cnn(CN2CCCCC2)c1 [Compound A-17]")
0.01

We next turn to a different compound, shown below.
Query :: Give the measured M Fading of C=O [Formaldehyde, reference compound] .
Result :: 0.15

* * *

Let's look at some compounds and their measured pKa.
- Assay info: acid dissociation constant pKa of secondary amines of formula (II)
- Experimental context: in water at room temperature (about 25° C.)
Lab note: record just the number, no unit beside it.

>>> endpoint_value("CCCCNC [Compound 11-5]")
10.9
>>> endpoint_value("CC1CNC(C)CN1 (stereo not shown) [II-25]")
9.7
>>> endpoint_value("CNCCO [II-8]")
9.8

Query :: Data request, read-out pKa, for CNCCNC [II-15]
Result :: 9.9

Query :: Fill blank: measured pKa of the compound CCNCCCNCC [II-18] is ____.
Result :: 10.6

* * *

- Assay info: Example 6: image storage stability (magenta fading), image stabilizer in conditioning bath
- Experimental context: 3 mmol/l; time of conditioning bath 120 sec.
Assay metric: M Fading
Give your answer as a number; write no unit.

>>> endpoint_value("C=O [Formaldehyde, reference compound]")
0.00
>>> endpoint_value("c1ncn(CN2CCN(Cn3cncn3)CC2)n1 [Compound A-23]")
0.00
>>> endpoint_value("C1N2CN3CN1CN(C2)C3 [Hexamethylenetetramine, reference compound]")
0.10
>>> endpoint_value("OCCN1CCN(Cn2cccn2)CC1 [Compound A-32]")
0.01

Query :: // M Fading lookup, key: Cc1ccn(CN(CCO)CCO)n1 [Compound A-11]
Result :: 0.00

Query :: Fill blank: measured M Fading of the molecule OCN1CCN(Cn2cncn2)CC1 [Compound A-45] is ____.
Result :: 0.01

Query :: Please report the recorded M Fading for c1cnn(CN2CCN(Cn3cccn3)CC2)c1 [Compound A-22] .
Result :: 0.00

* * *

- Assay info: Example 1: evaluation of image storage stability (magenta fading), stabilizing solution
- Experimental context: 5 mmol/l; stabilization time 20 sec.; 2 weeks 60° C. 20% RH
- Method: In addition, the time for the stabilization step was changed by changing the length of the processing rack. Thereafter, the sample was allowed to stand for 2 weeks under the conditions of 60° C. 20% RH and then the magenta density was measured again. Thus, magenta fading was evaluated by the reduced magenta density in the density stage that the magenta density after processing was 1.5. (M fading)
Assay metric: M Fading
Lab note: write the figure by itself, no unit.

Reference set, count: 2
>>> endpoint_value("c1ncn(CN2CCN(Cn3cncn3)CC2)n1")
0.00
>>> endpoint_value("c1ncn(CN2CCOCC2)n1")
0.01

Please look at the following molecule next.
Query :: // query M Fading value for entry c1cnn(CN2CCN(Cn3cccn3)CC2)c1
Result :: 0.00
